These measurements were taken from the NIST ThermoML archive (doi:10.1016/j.fluid.2011.10.017).

- EXPERIMENTAL_CONDITIONS: 298.15 K; 101.33 kPa; Liquid; Vibrating tube method
± gives the expanded uncertainty stated by the source.
REPORTED_PROPERTY: mass density
The reply must contain the numeric value and, after it, the unit.

Cc1ccccc1	862.18 ± 0.13 kg/m3
c1ccsc1	1058.61 ± 0.12 kg/m3
CCCCCC[n+]1ccc(C)cc1C.O=S(=O)([N-]S(=O)(=O)C(F)(F)F)C(F)(F)F	1339.39 ± 1.6 kg/m3
CCCCCC	655.09 ± 0.26 kg/m3

Next molecule, mass density to be filled in.
# mass density (molecule: c1ccncc1 ) is 978.24 ± 0.1 kg/m3

====

So I've got a bunch of compounds here, and I need their refractive index values.
- MEASUREMENT_DESCRIPTION: refractive index (Na D-line) (dimensionless)
- EXPERIMENTAL_CONDITIONS: 298.15 K; 101.33 kPa; Liquid; Standard Abbe refractometry
Give bare numbers.

Look up refractive index for the entries below, preserving their order.
1. CCCCCC[n+]1ccc(C)cc1C.O=S(=O)([N-]S(=O)(=O)C(F)(F)F)C(F)(F)F
2. c1ccsc1
3. c1ccncc1
4. CCCCCC
5. Cc1ccccc1

Reply |
1.45336
1.52523
1.50636
1.37236
1.49367
